# particulars: buffer; pH 7.4; 200.0 µM
experimental-endpoint: log10 solubility kinetic (log10 of the value in µg/mL)
Annotation: log10 of solubility kinetic, µg/mL basis.

COC(=O)c1ccc(S(=O)(=O)NCc2ccccn2)n1C
1.60

Now consider a different molecule.
So for `Cc1cnc(C(=O)Oc2cccc(Cl)c2Cl)cn1` , the logged log10 solubility kinetic turned out to be 1.55

----------
# particulars: buffer; pH 7.4; 200.0 µM
// values below are reported solubility kinetic

Input `O=C(CCC(=O)N1CCc2ccccc2C1)NCCc1ccc(Cl)cc1` . Output solubility kinetic: > 55.6 µg/mL

Memo: `O=C(CSC(=S)N1CCCC1)c1ccccc1` , reported solubility kinetic: < 0.6 µg/mL

response.value for `Cc1nc2c(C)cccn2c(=O)c1NC(=O)c1ccco1` (field: solubility kinetic) = > 42.5 µg/mL

Measured solubility kinetic, `Cc1ccc(NC(=O)Cn2cc(C=O)c3ccccc32)cc1C` : < 0.3 µg/mL

solubility kinetic recorded for this molecule, `CN1CCN(CC(=O)Nc2nc3c(s2)CCCC3)CC1` , is > 44.2 µg/mL

Just so you know, measured solubility kinetic for `O=C(O)c1ccc(/C=N/Nc2ncc(Cl)cc2Cl)cc1` came out at > 46.5 µg/mL

solubility kinetic measured on `Cc1ccc(NC(=O)CCl)c(C)c1` = > 29.7 µg/mL

// sample S=C(NCC(c1ccco1)N1CCCC1)Nc1ccccc1 (centres undefined) , its solubility kinetic was > 47.3 µg/mL

Record summary for `O=C(NCCN1CCCCC1)Nc1ccccc1Cl` : reported solubility kinetic = > 42.3 µg/mL

Looking up `O=C(CCN1C(=O)c2ccccc2C1=O)NCc1ccccc1` , I found its solubility kinetic recorded as > 46.3 µg/mL

Per the records, this molecule ( `COc1ccccc1OCc1ccc(C(=O)N2CCCCC2)o1` ) has solubility kinetic equal to > 47.3 µg/mL

Per the records, this molecule ( `CCOc1ccccc1NC(=O)Nc1ccc2c(c1)CCC2` ) has solubility kinetic equal to < 0.3 µg/mL

The measured solubility kinetic associated with `Cc1csc(NC(=O)c2ccc(=O)[nH]c2)n1` reads > 35.3 µg/mL

For reference, reported solubility kinetic for COc1ccc(NC(=O)C2CCCN(S(C)(=O)=O)C2)c(OC)c1 (centres undefined) stands at > 51.4 µg/mL

Recorded result, `Cc1cccc(NC(=O)Cn2nc(-c3ccco3)ccc2=O)c1C` , solubility kinetic: > 48.5 µg/mL

The molecule identified as `NC(=O)CNC(=O)c1cccc(Cl)c1` registered its solubility kinetic at > 31.9 µg/mL

Quick note, solubility kinetic for `CCc1cccc(CC)c1N(COC)C(=O)Cn1cnc2ccccc21` landed at > 52.7 µg/mL

----------
# particulars: buffer; pH 7.4; 200.0 µM
log10 solubility kinetic values by entry
All values: base-10 log of solubility kinetic in µg/mL.

Worked examples follow.
Cc1ccc(C(=O)OCC(=O)NCCc2ccccc2)cc1C
1.05
CC1CCCCC1NC(=O)CO/N=C/c1ccc(OC(F)F)cc1 (stereo not given)
0.94
N/C(Cc1cccc2ccccc12)=N\O
1.18
COc1ccc(CNC(=O)COC(=O)c2ccc(S(=O)(=O)N3CCCCC3)cc2)cc1
0.32
CC(=O)N/C(=C\c1ccccc1)C(=O)OCC(=O)Nc1ccc(C)c(S(=O)(=O)N(C)C)c1
1.76

Memo: `CCOC(=O)c1oc2ccccc2c1NC(=O)c1ccco1` , reported log10 solubility kinetic: 0.18

Query `CN1CCN(c2oc(/C=C/c3ccccc3)nc2C#N)CC1` yields log10 solubility kinetic of 1.61

Lookup result for `Cc1cc(C(=O)Nc2ccccc2Cl)c2ccccc2n1` ; measured log10 solubility kinetic: 1.57

Noted for `Cc1ccc(S(=O)(=O)Nc2ccccc2N2CCCCC2)cc1` : its log10 solubility kinetic reads 0.49

Briefly, log10 solubility kinetic measured for `O=[N+]([O-])c1cccc2ncccc12` : 1.21

Looking up `O=C(O)c1ncc(Cl)c(Cl)c1Cl` , I see its log10 solubility kinetic listed as 1.52
